# systemName: T1, HLA-A*01:01 in complex with the BTK peptide … conjugated with Ibrutinib (human, ibrutinib covalently bound to Cys)
# T1 construct: also called HLA-A*01:01_BTK-Ibrutinib
# assayMethodText: phage display selection; MBBA
assayMetric: binding result

INSERT INTO results (binder, experimentalresult) VALUES
  ('IBA1-21 (antibody, V domains shown, phage-display clone) VH: EVQLVESGGGLVQPGGSLRLSCAASGFTISSSSIHWVRQAPGKGLEWVASISSYYGYTSYADSVKGRFTISADTSKNTAYLQMNSLRAEDTAVYYCARYYSYSSGYGYYDYFDWGAMDYWGQGTLVTVSS VL: DIQMTQSPSSLSASVGDRVTITCRASQSVSSAVAWYQQKPGKAPKLLIYSASSLYSGVPSRFSGSRSGTDFTLTISSLQPEDFATYYCQQMQYSGWLITFGQGTKVEIKR', 'binds'),
  ('IBA1-8 (antibody, V domains shown, phage-display clone) VH: EVQLVESGGGLVQPGGSLRLSCAASGFTISYSSIHWVRQAPGKGLEWVASIYPSYGSTSYADSVKGRFTISADTSKNTAYLQMNSLRAEDTAVYYCARWQGYYQPALDYWGQGTLVTVSS VL: DIQMTQSPSSLSASVGDRVTITCRASQSVSSAVAWYQQKPGKAPKLLIYSASSLYSGVPSRFSGSRSGTDFTLTISSLQPEDFATYYCQQPYYPLITFGQGTKVEIKR', 'binds'),
  ('IBA1-4 (antibody, V domains shown, phage-display clone) VH: EVQLVESGGGLVQPGGSLRLSCAASGFTVSSSSIHWVRQAPGKGLEWVASIYSYSGSTYYADSVKGRFTISADTSKNTAYLQMNSLRAEDTAVYYCARQYSSSYYVWPGMDYWGQGTLVTVSS VL: DIQMTQSPSSLSASVGDRVTITCRASQSVSSAVAWYQQKPGKAPKLLIYSASSLYSGVPSRFSGSRSGTDFTLTISSLQPEDFATYYCQQYHYWASLITFGQGTKVEIKR', 'binds');
